molecular target: Androgen receptor (Homo sapiens, UniProt P10275); assay: Antagonist activity at Androgen receptor in human LNCaP cells transfected with ARR2PB-eGFP incubated for 3 days by synergy H1 microplate reader analysis
Sequence (P10275 whole entry): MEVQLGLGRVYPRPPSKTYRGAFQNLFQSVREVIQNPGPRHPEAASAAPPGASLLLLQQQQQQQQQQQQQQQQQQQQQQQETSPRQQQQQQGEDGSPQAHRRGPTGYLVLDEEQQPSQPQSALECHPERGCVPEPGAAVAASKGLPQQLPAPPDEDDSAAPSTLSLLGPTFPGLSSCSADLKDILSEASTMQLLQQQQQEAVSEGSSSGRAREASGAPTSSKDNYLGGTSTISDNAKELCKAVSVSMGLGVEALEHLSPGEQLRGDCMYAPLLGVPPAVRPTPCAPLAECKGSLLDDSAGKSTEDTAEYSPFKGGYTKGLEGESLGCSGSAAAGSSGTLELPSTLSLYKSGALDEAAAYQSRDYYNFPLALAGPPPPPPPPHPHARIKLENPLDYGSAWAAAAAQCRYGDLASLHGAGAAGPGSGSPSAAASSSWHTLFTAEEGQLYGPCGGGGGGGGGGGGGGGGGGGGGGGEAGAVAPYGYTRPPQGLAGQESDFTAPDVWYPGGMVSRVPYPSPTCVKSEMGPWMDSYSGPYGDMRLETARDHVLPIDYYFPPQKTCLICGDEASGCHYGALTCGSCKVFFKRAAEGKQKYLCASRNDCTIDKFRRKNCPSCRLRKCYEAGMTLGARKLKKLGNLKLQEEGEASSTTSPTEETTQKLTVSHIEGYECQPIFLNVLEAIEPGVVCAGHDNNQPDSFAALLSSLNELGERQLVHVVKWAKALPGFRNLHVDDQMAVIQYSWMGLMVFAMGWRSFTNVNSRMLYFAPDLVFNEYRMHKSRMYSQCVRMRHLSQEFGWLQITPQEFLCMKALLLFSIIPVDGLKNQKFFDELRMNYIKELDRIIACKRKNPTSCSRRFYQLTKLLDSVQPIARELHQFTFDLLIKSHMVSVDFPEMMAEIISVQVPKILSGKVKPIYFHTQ
measured property: log10(IC50) (log10 of the value in nM)

- Cc1oc(-c2ccc(F)c(C(F)(F)F)c2)cc1C(=O)Nc1nc(CN2CCOCC2)ns1: 1.41
- CC(=O)Cc1nsc(NC(=O)c2cc(-c3cccc(C(F)(F)F)c3)sc2C)n1: 3.96
- COc1cccc(-c2cc(C(=O)Nc3nc(CN4CCOCC4)ns3)c(C)o2)c1: 1.34
- Cc1oc(-c2cccc(C(F)(F)F)c2)cc1C(=O)Nc1nc(CN2CCCCC2)ns1: 1.38
- CC(=O)Cc1ccc(NC(=O)c2cc(-c3cccc(C(F)(F)F)c3)oc2C)cc1: 4.70
- Cc1oc(-c2cccc(C(F)(F)F)c2)cc1C(=O)Nc1nc(CC(C)O)ns1 (configuration not stated): 1.46
- Cc1oc(-c2cccc(C(F)(F)F)c2)cc1C(=O)Nc1nc(CC(C)N2CCCCC2)ns1 (configuration not stated): 2.65

Attribution: ChEMBL document CHEMBL6120968
